# STUDY_SYSTEM: EGFR (Homo sapiens (Human))
# Sequence (P00533 25-1210): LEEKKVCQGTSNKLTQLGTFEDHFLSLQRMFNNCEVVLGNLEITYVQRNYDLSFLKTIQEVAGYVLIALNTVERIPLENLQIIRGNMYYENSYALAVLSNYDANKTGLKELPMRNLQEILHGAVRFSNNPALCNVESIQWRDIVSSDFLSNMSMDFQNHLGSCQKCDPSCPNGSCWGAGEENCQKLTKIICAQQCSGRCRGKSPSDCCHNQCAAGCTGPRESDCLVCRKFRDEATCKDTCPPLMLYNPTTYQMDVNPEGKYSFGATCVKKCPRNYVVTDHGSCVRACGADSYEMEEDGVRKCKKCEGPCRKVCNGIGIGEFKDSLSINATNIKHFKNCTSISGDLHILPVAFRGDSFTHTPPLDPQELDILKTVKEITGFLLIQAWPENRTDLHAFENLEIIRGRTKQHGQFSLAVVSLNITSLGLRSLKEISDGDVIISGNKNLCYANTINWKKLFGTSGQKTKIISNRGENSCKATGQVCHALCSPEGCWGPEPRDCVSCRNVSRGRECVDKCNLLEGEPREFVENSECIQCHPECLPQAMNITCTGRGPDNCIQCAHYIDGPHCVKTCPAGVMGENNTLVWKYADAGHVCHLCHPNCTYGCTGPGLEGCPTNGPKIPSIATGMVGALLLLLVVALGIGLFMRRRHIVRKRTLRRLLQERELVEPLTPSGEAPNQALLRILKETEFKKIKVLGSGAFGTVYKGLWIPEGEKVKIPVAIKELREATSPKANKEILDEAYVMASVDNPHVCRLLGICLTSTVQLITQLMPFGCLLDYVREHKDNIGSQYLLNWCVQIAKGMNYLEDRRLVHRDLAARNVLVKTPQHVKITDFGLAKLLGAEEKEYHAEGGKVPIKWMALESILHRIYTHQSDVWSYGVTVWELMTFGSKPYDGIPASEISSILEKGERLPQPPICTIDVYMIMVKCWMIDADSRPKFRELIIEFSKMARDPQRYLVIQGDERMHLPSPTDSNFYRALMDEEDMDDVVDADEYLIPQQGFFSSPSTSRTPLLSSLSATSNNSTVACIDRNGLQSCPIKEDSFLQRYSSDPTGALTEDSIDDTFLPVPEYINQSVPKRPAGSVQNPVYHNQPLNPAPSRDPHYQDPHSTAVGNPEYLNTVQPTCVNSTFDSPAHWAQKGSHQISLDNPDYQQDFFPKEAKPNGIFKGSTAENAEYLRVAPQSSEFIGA
# ASSAY_SUMMARY: ErbB Enzyme Assay (HTRF KinEASE-TK), Assay 3
# Assay type: biochemical
# EXPERIMENTAL_PARAMETERS: EGFR enzyme
Field: pIC50. Provide a value for each of the molecules that follow.
A value of pIC50 is the negative decimal logarithm of a concentration given in moles per litre.

**Query** Entry C=CC(=O)N1CC[C@@H]2CN(c3nc4c(Nc5ccc(Oc6ccn7ncnc7c6)c(C)c5F)ncnc4cc3OC)C[C@@H]21 needs its pIC50 filled in; supply it.
**Result** 6.35

**Query** State, in one line, measured pIC50 of C=CC(=O)N1CCC(c2ccc3ncnc(Nc4ccc(Oc5ccc6c(c5)ncn6C)c(C)c4F)c3n2)CC1
**Result** 5.59

**Query** Return pIC50 for the following molecule: C=CC(=O)N1CCC(Oc2ccc3ncnc(Nc4ccc(Oc5cnn6ccnc6c5)c(C)c4)c3n2)CC1
**Result** 5.87

**Query** Please indicate pIC50 recorded for C=CC(=O)N1[C@@H]2CC[C@H]1C[C@@H](c1ccc3ncnc(Nc4cc(C)c(Oc5ccn6ncnc6c5)cc4F)c3n1)C2
**Result** 5.32

**Query** For the molecule C=CC(=O)N1CCC(Oc2ccc3ncnc(Nc4ccc(Oc5cnn6ccnc6c5)c(Cl)c4)c3n2)CC1 , give its measured pIC50 value.
**Result** 5.86

**Query** # return recorded pIC50 for entry C=CC(=O)N1CCC(Oc2nc3c(Nc4ccc(Oc5ccn6ncnc6c5)c(Cl)c4F)ncnc3cc2OC)CC1
**Result** 7.31

**Query** Please list pIC50 recorded for the molecule C=CC(=O)N1CC[C@H]2C[C@@H](c3ccc4ncnc(Nc5ccc(Oc6ccc7c(c6)ncn7C)c(C)c5F)c4n3)C[C@H]21 (racemic)
**Result** 5.50

**Query** Give me measured pIC50, please, for this molecule: C=CC(=O)N1CCCN(c2ccc3ncnc(Nc4ccc(Oc5ccn6ncnc6c5)c(Cl)c4F)c3n2)CC1
**Result** 5.47

**Query** Answer with the recorded pIC50 for the molecule listed here: C=CC(=O)N1C2COCC1CC(c1ccc3ncnc(Nc4ccc(Oc5ccc6c(c5)ncn6C)c(C)c4F)c3n1)C2 (stereo not drawn)
**Result** 6.24

**Query** Supply measured pIC50 of C=CC(=O)N1C[C@H]2C[C@H](c3ccc4ncnc(Nc5ccc(Oc6ccc7c(c6)ncn7C)c(C)c5F)c4n3)C[C@H]2C1 in your reply.
**Result** 5.38

**Query** Fill in pIC50 for record CC#CC(=O)N1CCN(c2ccc3ncnc(Nc4ccc(Oc5ccn6ncnc6c5)c(C)c4F)c3n2)CC12CC2
**Result** 5.21

**Query** Kindly indicate its recorded pIC50. Item: CC#CC(=O)N1CCN(c2ccc3ncnc(Nc4ccc(Oc5ccn6ncnc6c5)c(Cl)c4F)c3n2)C[C@@H]1C(F)(F)F
**Result** 7.13

**Query** Output pIC50 of CC#CC(=O)N1CCN(c2ccc3ncnc(Nc4ccc(Oc5ccn6ncnc6c5)c(C)c4F)c3n2)C[C@@H]1C(F)F (racemic)
**Result** 5.75

**Query** Indicate the recorded pIC50 value for this molecule: C=CC(=O)N1CC2CC(C1)N2c1ccc2ncnc(Nc3cc(Cl)c(Oc4ccn5ncnc5c4)cc3F)c2n1
**Result** 5.08

**Query** State its pIC50: C=CC(=O)N1CCN(c2ccc3ncnc(Nc4ccc(Oc5ccn6ncnc6c5)c(Cl)c4F)c3n2)CC1
**Result** 6.70

**Query** Quote pIC50 reported for CC#CC(=O)N1CC2CCC(C1)N2c1ccc2ncnc(Nc3ccc(Oc4ccn5ncnc5c4)c(C)c3F)c2n1 please.
**Result** 5.74

**Query** Using the record for C=CC(=O)N1CCN(c2ccc3ncnc(Nc4ccc(Oc5ccn6ncnc6c5)c(C)c4F)c3n2)C[C@H]1C , state its measured pIC50.
**Result** 5.44

**Query** Supply measured pIC50 of C=CC(=O)N1C[C@H]2C[C@H](c3ccc4ncnc(Nc5ccc(Oc6ccn7ncnc7c6)c(Cl)c5F)c4n3)[C@@H]1C2 in your reply.
**Result** 6.51
